Values from ChEMBL document CHEMBL3045653

biological target: UniProt J7HAW4; experiment: Inhibition of ALS in ALS-herbicide-susceptible Raphanus raphanistrum […] (wild radish); settings: pooled result: one value given for 2 cell lines, strains, targets or settings; read-out: I50
Sequence (J7HAW4 whole entry): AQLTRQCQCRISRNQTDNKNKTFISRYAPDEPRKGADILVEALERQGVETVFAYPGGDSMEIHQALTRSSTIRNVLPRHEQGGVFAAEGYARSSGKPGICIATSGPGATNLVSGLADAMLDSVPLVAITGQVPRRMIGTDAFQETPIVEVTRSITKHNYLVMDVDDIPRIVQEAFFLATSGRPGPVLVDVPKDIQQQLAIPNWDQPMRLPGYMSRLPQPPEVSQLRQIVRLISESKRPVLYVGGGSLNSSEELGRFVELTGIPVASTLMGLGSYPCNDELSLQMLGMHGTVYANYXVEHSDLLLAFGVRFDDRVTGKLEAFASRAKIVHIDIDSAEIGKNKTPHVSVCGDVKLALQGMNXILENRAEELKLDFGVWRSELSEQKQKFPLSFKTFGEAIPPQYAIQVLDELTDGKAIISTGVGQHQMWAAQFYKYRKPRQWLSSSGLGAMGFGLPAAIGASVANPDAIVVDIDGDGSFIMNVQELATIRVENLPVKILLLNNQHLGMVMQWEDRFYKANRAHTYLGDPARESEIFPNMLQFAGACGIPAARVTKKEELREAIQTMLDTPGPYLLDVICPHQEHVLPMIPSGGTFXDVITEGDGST
Reported Endpoint: IC50 (nM)
Give the quantity in nM, number only.

Please look at `Cc1cc(C)nc(NC(=O)NS(=O)(=O)c2ccccc2C(=O)O)n1` and tell me its recorded IC50 on UniProt J7HAW4.
23
